Hey, just so you know, these numbers are from patent US6670132B2.

target: PDGF-BB (Homo sapiens); construct: purchased R&D Systems (Minneapolis, Minn.); test: Binding of PDGF aptamers to PDGF-BB; conditions: aptamer binding to PDGF
METRIC: pKd
Please treat pKd as minus the base-10 logarithm of the molar concentration.

## Input // fetch pKd given entry 20ta: synthetic 33-mer DNA oligo, PDGF aptamer, 5′CGGGCGCGTTCTTCGTGGTTACTTTTAGTCCCG (DNA, backbone not given here)
## Output 10.30

---

molecular target: PDGF-BB (Homo sapiens, UniProt P01127); construct: purchased R&D Systems (Minneapolis, Minn.); experiment: Binding of PDGF aptamers to PDGF-BB; conditions: aptamer binding to PDGF-BB
Sequence (P01127 82-190 limits assumed): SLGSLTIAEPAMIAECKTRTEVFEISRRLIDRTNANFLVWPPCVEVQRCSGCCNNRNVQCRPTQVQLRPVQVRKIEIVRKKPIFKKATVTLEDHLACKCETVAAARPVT
METRIC: Kd (nM)
Numbers only here, please. The scale is nM.

## Input Please report Kd for the following substance: 20tb: synthetic 27-mer DNA oligo, truncated PDGF aptamer, 5′GGGCCGTTTCGGGTTACTTTTAGTCCC (DNA, backbone not given here)
## Output 0.5

---

target: PDGF-BB (Homo sapiens, UniProt P01127); construct: purchased R&D Systems (Minneapolis, Minn.); assay: PDGF aptamer competition assay (displacement of 32P-labeled 20tb, nitrocellulose filter binding); conditions: competition with 1.16 nM 32P end-labeled 20tb, 1.0 nM PDGF-BB, 37° C.; calculated from competition profiles by equations (1)-(3); read-out: KdC
METRIC: pKd
Note on pKd: it is the negative log10 of concentration, concentration in mol/L.

INSERT INTO measurements (compound, assay_target, measured_value) VALUES
  ('O=S(=O)(O)c1ccc2c(S(=O)(=O)O)cc(S(=O)(=O)O)cc2c1', 'PDGF-BB (Homo sapiens, UniProt P01127)', 3.06);

Next item in the queue.
## Input Please report pKd for the following molecule: "O=S(=O)(O)c1ccc(N=Nc2c(S(=O)(=O)O)cc3cc(S(=O)(=O)O)cc(O)c3c2O)cc1"
## Output 4.72

---

test system: wheat germ agglutinin (WGA); test: Wheat germ agglutinin aptamer competition assay (displacement of 32P-labeled 11.20, nitrocellulose filter binding); design: species or system Triticum vulgare; details: 10 nM 32P end-labeled 11.20, 10 nM WGA, room temperature
METRIC: ability to displace radiolabeled 11.20 from WGA

INSERT INTO assay_data (molecule, assay_target, measured_value) VALUES
  ('CC(=O)N[C@H]1[C@H](O[C@H]2[C@H](O)[C@@H](NC(C)=O)C(O)O[C@@H]2CO)O[C@H](CO)[C@@H](O[C@@H]2O[C@H](CO)[C@@H](O)[C@H](O)[C@H]2NC(C)=O)[C@@H]1O (stereo partly shown)', 'wheat germ agglutinin (WGA)', 'best ligands'),
  ('CC(=O)N[C@H]1[C@H](O[C@H]2[C@H](O)[C@@H](NC(C)=O)C(O)O[C@@H]2CO)O[C@H](CO)[C@@H](O)[C@@H]1O (stereo partly shown)', 'wheat germ agglutinin (WGA)', 'best ligands'),
  ('CC(=O)N[C@H]1[C@H](O[C@H]2[C@H](O)[C@@H](NC(C)=O)C(O)O[C@@H]2CO)O[C@H](CO)[C@@H](O[C@@H]2O[C@H](CO)[C@@H](O[C@@H]3O[C@H](CO)[C@@H](O)[C@H](O)[C@H]3NC(C)=O)[C@H](O)[C@H]2NC(C)=O)[C@@H]1O (stereo partly shown)', 'wheat germ agglutinin (WGA)', 'best ligands');
